- System: Hs-578T
- assayExplanation: NCI tumour cell line growth inhibition, 48 h
Active and inactive are the calls of the source. Cut-off read from the data, not from the text of the source: active = GI50 up to about 1.1 µM and inactive = higher.
assayEndpoint: GI50

Task item: Reported GI50 for Hs-578T, given O=C1OC(c2ccc(O)c(Cl)c2)(c2ccc(O)c(Cl)c2)c2ccc(Br)c3cccc1c23.O=C1OC(c2ccc(O)c(Cl)c2)(c2ccc(O)c(Cl)c2)c2cccc3c(Br)ccc1c23 ?
Reply: 29.3 µM (inactive)

Task item: Query CCOC(=O)c1c(N)sc2c1C(C)(C(=O)OCC)CC2 (stereo not given) next
Reply: 78.7 µM (inactive)

Task item: Queued: NS(=O)(=O)c1nnc(NC(=O)c2ccccc2)s1
Reply: > 100 µM (inactive)

Task item: Same read-out for C=C(CC[C@@H](C)[C@H]1CC[C@H]2[C@@H]3C[C@@H](O)[C@H]4C[C@@H](O)CC[C@]4(CO)[C@H]3CC[C@]12C)C(C)C ?
Reply: 6.18 µM (inactive)

Task item: Check N#CC(C#N)=C/C=C/c1ccccc1[N+](=O)[O-] too.
Reply: 3.48 µM (inactive)

---

Assign GI50 to each entry below.
- System: NCI/ADR-RES
- assayExplanation: NCI tumour cell line growth inhibition, 48 h
Activity calls are given as the source filed them. Rule as the data show it: active = GI50 up to about 1.1 µM and inactive = higher.

Task item: What GI50 value was documented for this molecule, COc1ccc(-c2cc(-c3ccccc3)c3c(n2)-c2ccccc2NC(=O)C3)cc1 ?
Reply: 36.5 µM (inactive)

Task item: What do you have for Cc1cc2nc(C#N)c(N3CCN(c4ccc([N+](=O)[O-])cc4)CC3)nc2cc1C ?
Reply: > 79.1 µM (inactive)

Task item: Proceed to C/C=C\C(CC(=O)NCCc1c[nH]c2ccccc12)CC(=O)OC (stereo not given)
Reply: > 100 µM (inactive)

Task item: One more molecule: Cc1ccc(N2Cc3c(ccc4ccccc34)OP2(=S)N2CCCC2)cc1 (stereo not given)
Reply: > 100 µM (inactive)

Task item: Again, but for O=C1c2cccnc2S(=O)(=O)N1c1ccc(Br)cc1
Reply: > 100 µM (inactive)

Task item: Moving on to the next molecule: CN(C)CCn1c(=O)oc2cc(C(=O)CN3CCOCC3)ccc21
Reply: > 100 µM (inactive)

Task item: Cool, now CCCc1nnc2sc(COc3ccc(OCc4nn5c(CCC)nnc5s4)c(Cl)c3)nn12
Reply: 30.5 µM (inactive)

Task item: Also check O=C(O)[C@@H]1CCC(=O)N1C(c1ccc2c(c1)OCO2)c1ccc2c(c1)OCO2
Reply: > 100 µM (inactive)

Task item: Also need Cc1c2ccccc2c(C2C3C(=O)N(c4ccc(Br)cc4)C(=O)C3ON2C(C(N)=O)c2ccccc2)c2ccccc12 (stereo not given) , thanks.
Reply: 4.39 µM (inactive)

Task item: Can you check FC1C2=C(SC1(F)F)C1CCC2C1 (stereo not given) next?
Reply: > 100 µM (inactive)

---

- Tested on: HT-29
- assayExplanation: NCI tumour cell line growth inhibition, 48 h
Calls of active or inactive are those of the source. Cut-off read from the data, not from the text of the source: active = GI50 up to about 1.1 µM and inactive = higher.
Consider the following compounds; for each one, report its GI50.

Task item: Request: GI50, test system HT-29, entry NC(=O)c1cc2ccccc2c(/N=N/c2ccccc2)c1O
Reply: 7.87 µM (inactive)

Task item: Field entry: Cn1c2ccccc2c(=O)c2c(O)cc3c(c21)CC(C1(C)CO1)O3 (stereo not given)
Reply: 4.41 µM (inactive)

Task item: Note, next up: c1cc2c(cc1C1=NCCN1)c1cc(C3=NCCN3)ccc1n2CC1CCCCC1
Reply: 11.5 µM (inactive)

Task item: Also check COC(OC)[C@@H]1OC[C@H](n2ccc(=O)[nH]c2=O)[C@H]1O
Reply: > 100 µM (inactive)

Task item: Now this one: COC(=O)/C=C\C(C#N)(C#N)/N=C/c1ccsc1
Reply: 4.18 µM (inactive)

Task item: Entry to check: C[N+](C)(C)CC(=O)N/N=C(/C=C/c1ccccc1)CC1OC(=O)c2ccccc21 (stereo not given)
Reply: > 10 µM (inactive)

Task item: Please give the result for O=C1CC(c2ccccc2)NCCCCN2CC(CN1)C(C(O)c1ccccc1)C2=O (stereo not given) too.
Reply: > 100 µM (inactive)

Task item: NC(Cc1ccccc1)C(=O)NC(Cc1ccccc1)NC(=O)C(Cc1c[nH]c2ccccc12)C(=O)O (stereo not given) ?
Reply: > 100 µM (inactive)

Task item: Item: COc1ccc(-c2cc(-c3ccccc3)c3c(n2)-c2ccccc2NC(=O)C3)cc1
Reply: 12.1 µM (inactive)

Task item: Also COc1ccc(C2OC(c3ccncc3)=NN2C)cc1OC (stereo not given) , if possible.
Reply: > 100 µM (inactive)
